# experimental-target: N-type calcium channel (Homo sapiens, UniProt Q00975)
# Sequence (Q00975 whole entry): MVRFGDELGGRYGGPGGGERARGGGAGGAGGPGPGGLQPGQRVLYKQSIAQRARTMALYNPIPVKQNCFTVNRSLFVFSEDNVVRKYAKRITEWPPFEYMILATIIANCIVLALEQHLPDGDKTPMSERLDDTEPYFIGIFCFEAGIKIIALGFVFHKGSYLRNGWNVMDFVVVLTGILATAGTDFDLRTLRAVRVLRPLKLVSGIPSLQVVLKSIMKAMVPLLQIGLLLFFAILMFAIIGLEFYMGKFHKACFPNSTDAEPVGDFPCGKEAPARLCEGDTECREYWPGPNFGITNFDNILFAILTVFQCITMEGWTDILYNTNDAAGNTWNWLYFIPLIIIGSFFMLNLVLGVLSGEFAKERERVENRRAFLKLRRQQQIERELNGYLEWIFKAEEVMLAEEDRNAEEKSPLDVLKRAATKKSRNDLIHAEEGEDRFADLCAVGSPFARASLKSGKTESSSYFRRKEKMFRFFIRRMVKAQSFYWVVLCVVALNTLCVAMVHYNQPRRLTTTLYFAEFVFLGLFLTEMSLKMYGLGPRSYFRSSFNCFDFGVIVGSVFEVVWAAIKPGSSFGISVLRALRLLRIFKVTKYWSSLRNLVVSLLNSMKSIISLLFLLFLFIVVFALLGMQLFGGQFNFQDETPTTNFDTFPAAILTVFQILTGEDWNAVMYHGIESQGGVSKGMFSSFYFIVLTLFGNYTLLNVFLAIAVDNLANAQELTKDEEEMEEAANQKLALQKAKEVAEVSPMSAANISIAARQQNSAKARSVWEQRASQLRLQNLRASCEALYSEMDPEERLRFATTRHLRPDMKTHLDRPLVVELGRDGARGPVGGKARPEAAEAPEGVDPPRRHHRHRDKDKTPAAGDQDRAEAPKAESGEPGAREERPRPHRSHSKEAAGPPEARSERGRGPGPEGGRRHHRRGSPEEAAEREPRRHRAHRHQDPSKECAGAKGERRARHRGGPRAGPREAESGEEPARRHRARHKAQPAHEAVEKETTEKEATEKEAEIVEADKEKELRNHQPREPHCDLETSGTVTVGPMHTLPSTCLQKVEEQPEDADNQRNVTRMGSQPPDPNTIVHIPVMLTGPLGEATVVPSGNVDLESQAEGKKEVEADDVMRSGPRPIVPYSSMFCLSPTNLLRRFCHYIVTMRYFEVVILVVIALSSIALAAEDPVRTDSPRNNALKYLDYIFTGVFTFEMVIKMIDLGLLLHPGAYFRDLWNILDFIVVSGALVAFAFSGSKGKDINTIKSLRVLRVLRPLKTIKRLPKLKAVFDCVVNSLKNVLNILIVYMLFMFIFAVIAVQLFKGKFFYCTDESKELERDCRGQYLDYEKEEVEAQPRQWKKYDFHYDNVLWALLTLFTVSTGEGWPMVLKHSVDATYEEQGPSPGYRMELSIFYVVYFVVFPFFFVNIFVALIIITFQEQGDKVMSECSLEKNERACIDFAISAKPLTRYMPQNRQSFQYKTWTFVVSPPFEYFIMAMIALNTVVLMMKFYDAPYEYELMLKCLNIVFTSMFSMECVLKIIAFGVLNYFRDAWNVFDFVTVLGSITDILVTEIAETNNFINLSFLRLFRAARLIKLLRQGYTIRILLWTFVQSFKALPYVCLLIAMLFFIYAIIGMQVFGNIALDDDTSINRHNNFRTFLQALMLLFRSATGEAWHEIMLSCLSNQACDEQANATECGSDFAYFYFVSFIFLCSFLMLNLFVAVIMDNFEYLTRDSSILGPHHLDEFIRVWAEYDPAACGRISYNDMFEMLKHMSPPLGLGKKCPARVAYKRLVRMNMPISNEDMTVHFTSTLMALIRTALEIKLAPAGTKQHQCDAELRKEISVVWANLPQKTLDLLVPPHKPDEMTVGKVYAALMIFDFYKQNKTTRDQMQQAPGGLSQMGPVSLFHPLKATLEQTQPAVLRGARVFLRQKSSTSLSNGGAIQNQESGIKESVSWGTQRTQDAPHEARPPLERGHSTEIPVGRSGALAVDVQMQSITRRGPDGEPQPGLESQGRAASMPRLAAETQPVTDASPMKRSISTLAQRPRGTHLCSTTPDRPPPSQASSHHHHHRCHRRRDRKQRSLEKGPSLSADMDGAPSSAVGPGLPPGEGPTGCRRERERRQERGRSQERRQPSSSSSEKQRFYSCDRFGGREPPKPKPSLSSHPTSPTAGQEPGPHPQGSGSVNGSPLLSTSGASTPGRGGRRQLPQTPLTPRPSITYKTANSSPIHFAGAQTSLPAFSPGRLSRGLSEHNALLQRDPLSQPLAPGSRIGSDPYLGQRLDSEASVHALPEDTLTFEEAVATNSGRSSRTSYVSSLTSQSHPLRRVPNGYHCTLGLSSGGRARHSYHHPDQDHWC
# Sequence (P54289 25-1103 partner): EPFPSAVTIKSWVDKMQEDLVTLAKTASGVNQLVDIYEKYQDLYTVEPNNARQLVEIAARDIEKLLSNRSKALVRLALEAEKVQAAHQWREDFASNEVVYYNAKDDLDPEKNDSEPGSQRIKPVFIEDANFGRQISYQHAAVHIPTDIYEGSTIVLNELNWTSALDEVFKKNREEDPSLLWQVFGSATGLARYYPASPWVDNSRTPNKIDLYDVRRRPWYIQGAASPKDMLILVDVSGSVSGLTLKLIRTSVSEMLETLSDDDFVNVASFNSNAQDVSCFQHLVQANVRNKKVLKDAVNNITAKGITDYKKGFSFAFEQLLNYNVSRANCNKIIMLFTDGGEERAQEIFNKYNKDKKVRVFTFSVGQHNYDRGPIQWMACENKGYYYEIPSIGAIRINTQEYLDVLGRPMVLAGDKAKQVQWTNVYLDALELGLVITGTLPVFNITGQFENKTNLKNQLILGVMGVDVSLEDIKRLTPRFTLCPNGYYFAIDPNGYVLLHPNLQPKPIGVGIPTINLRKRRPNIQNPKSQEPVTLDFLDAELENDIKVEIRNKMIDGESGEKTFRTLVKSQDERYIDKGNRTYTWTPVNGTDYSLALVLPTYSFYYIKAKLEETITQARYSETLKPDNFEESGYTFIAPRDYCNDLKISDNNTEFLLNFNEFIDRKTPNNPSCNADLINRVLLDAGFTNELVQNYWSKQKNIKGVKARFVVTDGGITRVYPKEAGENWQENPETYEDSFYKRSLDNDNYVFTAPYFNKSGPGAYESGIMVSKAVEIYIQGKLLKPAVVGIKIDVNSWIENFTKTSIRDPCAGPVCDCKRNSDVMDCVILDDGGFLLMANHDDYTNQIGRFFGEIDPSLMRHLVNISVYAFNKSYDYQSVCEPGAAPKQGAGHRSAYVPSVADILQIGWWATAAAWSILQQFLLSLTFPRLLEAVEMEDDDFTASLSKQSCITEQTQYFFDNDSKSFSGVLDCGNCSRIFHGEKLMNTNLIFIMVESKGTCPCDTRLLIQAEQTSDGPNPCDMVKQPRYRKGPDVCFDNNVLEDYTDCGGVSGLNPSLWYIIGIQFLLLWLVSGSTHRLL
# Sequence (P54284 whole entry partner): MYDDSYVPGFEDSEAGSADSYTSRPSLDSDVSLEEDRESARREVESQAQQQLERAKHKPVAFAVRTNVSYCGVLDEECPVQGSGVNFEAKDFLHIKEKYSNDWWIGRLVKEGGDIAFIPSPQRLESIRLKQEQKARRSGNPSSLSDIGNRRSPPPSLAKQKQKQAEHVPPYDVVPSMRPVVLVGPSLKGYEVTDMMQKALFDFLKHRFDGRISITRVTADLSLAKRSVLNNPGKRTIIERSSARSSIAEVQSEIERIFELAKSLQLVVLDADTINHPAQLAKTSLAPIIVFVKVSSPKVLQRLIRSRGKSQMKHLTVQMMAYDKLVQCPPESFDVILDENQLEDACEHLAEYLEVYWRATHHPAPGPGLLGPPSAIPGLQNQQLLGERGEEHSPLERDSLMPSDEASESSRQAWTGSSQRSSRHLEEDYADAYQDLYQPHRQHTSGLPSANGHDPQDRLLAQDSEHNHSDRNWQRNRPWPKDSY
# protocol-notes: N-Channel FLIPR (Fluorescent Laser Imaging Plate Reader) assay
# condition-summary: inhibition of 80 mM K+ evoked calcium flux, differentiated IMR32 cells
measure: pIC50
Please treat pIC50 as minus the base-10 logarithm of the molar concentration.

Query: Looking for the measured pIC50 of CC(C)(C)CNc1cc(Nc2ccc3ncsc3c2)nc2c(F)cccc12 , can you help?
Response: 5.16

Query: What value of pIC50 has been reported for the following compound? CC(C)(C)CNc1cc(Nc2ccccc2N2CCOCC2)nc2ccccc12
Response: 6.17

Query: Which pIC50 is listed for COc1ccc(Nc2cc(NCC(C)(C)C)c3ccccc3n2)cc1OC ?
Response: 5.76

Query: Param item = CC(C)(C)CNc1cc(Nc2ccc(F)c(Cl)c2)nc2ccccc12 ; retrieve measured pIC50.
Response: 5.23

Query: For the compound shown here, COc1ccc(Nc2cc(NCC(C)(C)C)c3cccc(F)c3n2)cc1OC , give the reported pIC50.
Response: 5.55

Recorded values, source patent US7060834B2.
